# procedure.text: Cytotoxicity against human HCT116 cells assessed as growth inhibition after 48 hrs by MTT assay
# Type: functional, cell-based
# condition.parameters: HCT-116, 48 h
pIC50: −log10 of the molar value.
Given measured pIC50, output YES if it is greater than or equal to 5 and NO if not.

- COc1cc(C(=O)NO)ccc1Oc1no[n+]([O-])c1S(=O)(=O)c1ccccc1: YES
- O=C(CCCCCOc1no[n+]([O-])c1S(=O)(=O)c1ccccc1)NO: YES
- O=C(CCCCOc1no[n+]([O-])c1S(=O)(=O)c1ccccc1)NO: YES
- O=C(Cc1ccc(Oc2no[n+]([O-])c2S(=O)(=O)c2ccccc2)cc1)NO: NO

----------
pIC50 for assorted molecules
# procedure.text: Cytotoxicity against human KG1 cells assessed as growth inhibition after 48 hrs by MTT assay
# Assay type: functional, cell-based
# condition.parameters: KG-1, 48 h
pIC50: −log10 of the molar value.
recorded.endpoint: pIC50

* O=C(COCCOc1no[n+]([O-])c1S(=O)(=O)c1ccccc1)NO | 5.13
* O=C(NO)c1cccc(Oc2no[n+]([O-])c2S(=O)(=O)c2ccccc2)c1 | 5.73
* COc1cc(C(=O)NO)ccc1Oc1no[n+]([O-])c1S(=O)(=O)c1ccccc1 | 5.78
* O=C(NO)c1ccc(Oc2no[n+]([O-])c2S(=O)(=O)c2ccccc2)cc1 | 5.91
* O=C(CCCOc1no[n+]([O-])c1S(=O)(=O)c1ccccc1)NO | 5.83
* CCCC(C)(COc1no[n+]([O-])c1S(=O)(=O)c1ccccc1)C(=O)NO (stereo unspecified) | 5.39
* O=C(CCCCCCOc1no[n+]([O-])c1S(=O)(=O)c1ccccc1)NO | 5.37
* O=C(CCCCOc1no[n+]([O-])c1S(=O)(=O)c1ccccc1)NO | 5.72
* O=C(/C=C/c1ccc(Oc2no[n+]([O-])c2S(=O)(=O)c2ccccc2)cc1)NO | 5.56
* O=C(Cc1ccc(Oc2no[n+]([O-])c2S(=O)(=O)c2ccccc2)cc1)NO | 5.74
* O=C(CCCCCCCOc1no[n+]([O-])c1S(=O)(=O)c1ccccc1)NO | 6.20
